Listing of recorded melting point by entry.

Solved entries:
CCOC(=O)c1cccc(-c2ccc(-c3cccnc3)cc2)n1 ... 84 to 104 °C
CCOC(=O)c1cccc(-c2ccc(-c3ccccn3)cc2)n1 ... 130 to 132 °C
CCOc1ccc(-c2cccc(C(=O)OCCc3ccco3)n2)cc1 ... 82 to 84 °C
CC(C)OC(=O)c1cccc(-c2ccc(Cl)c(Cl)c2)n1 ... 74 to 76 °C
CCOc1ccc(-c2cccc(C(=O)OCC(C)(C)C)n2)cc1 ... 89 to 92 °C
CCCc1ccc(-c2cccc(C(=O)OCC)n2)cc1 ... 68 to 69 °C
CCOC(=O)c1cccc(-c2ccc(C(F)(F)F)cc2)n1 ... 110 to 112 °C
CCOc1ccc(-c2cccc(C(=O)OCc3cccs3)n2)cc1 ... 93 to 94 °C

Task: Specify reported melting point for the molecule shown: "CC(=O)Oc1ccc(-c2cccc(C(=O)OC(C)C)n2)cc1"
Output: 71 to 75 °C

Task: Quote melting point reported for "CC(C)OC(=O)c1cccc(-c2ccc(C(C)(C)C)cc2)n1" please.
Output: 104 to 106 °C

Task: For the molecule "CCOc1ccc(-c2cc(C)cc(C(=O)OC(C)C)n2)cc1" , give its measured melting point value.
Output: 85 to 88 °C

Task: Return reported melting point. Input molecule: "CCCCCCOc1ccc(-c2cc(OC)cc(C(=O)OC(C)C)n2)cc1"
Output: 53 to 55 °C

Task: Quickly give me recorded melting point for "CC(C)OC(=O)c1cccc(-c2ccc(OC(F)(F)F)cc2)n1"
Output: 43 to 47 °C

Values were extracted from patent US20220289698A1.
